Reported PBM binding z-score is given for each of the following sequences.
# System: PPARg:RXRa 90nM:30nM, anti-RXR (NR concentration 90 nM, RXRa partner concentration 30 nM)
# Protocol: PBM binding z-score (relative to random genomic background probes); higher = stronger binding; sequences stand for … in GC…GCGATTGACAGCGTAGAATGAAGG
No unit in the answer, only the number.

// worked examples, PBM binding z-score included
>>> data_value("TAGCCTAGGTCATTGGGCCAGTAAAGTACGCATC")
2.4
>>> data_value("ACTAGCAGCCCAAGTTTGGGTCACTCAAACAAAG")
-0.372
>>> data_value("ATCTCTAGGTAACGATAGTTCAGTGAATGCAAAT")
0.514

The recorded PBM binding z-score for entry `TCGAGTATGTTAGGGGCATTCAGAATGGCGTCGA` equals 1.02

// field: PBM binding z-score; key: `ATCGAAAGGTCGTGCGGTGAGTATACAGAAAGGC` ; value = 2.23

So, `CCTTACGGGTCACGATGTTATAGCACGACGAGCG` ? Its PBM binding z-score was 4.59
